pKi: −log10 of the molar value.
Please find below pKi measurements for UniProtKB P00742, combined from several publications.

Sample records with pKi:
NC[C@H]1CC[C@H](C(=O)N[C@@H](Cc2ccccc2)c2nc(-c3ccc(CC(N)=O)cc3)c[nH]2)CC1 (mixture of isomers) = < 5.09
O=C(CN1CCN(S(=O)(=O)c2cc3ccc(Cl)cc3s2)CC1=O)NCCn1ccnc1 = < 5.92

With those in mind, consider the next molecule.
Q. Quick one: pKi for CCOc1cc(C(Nc2ccc3c(N)nccc3c2)C(=O)NS(=O)(=O)c2cccc(CO)c2)ccc1OC(C)C (stereo not drawn) ?
A. < 5.10

----------
# Ki against Coagulation factor X (Homo sapiens), merged from multiple literature sources
measure: Ki (µM)

Example entries begin here.
N=C(N)c1cccc(Cn2c(C(=O)NCc3cc(Cl)cc(Cl)c3)c(Br)c3ccccc32)c1 = 0.085
N=C(N)c1ccc2[nH]cc(C(Cc3ccccc3)C(=O)NCc3ccc(-n4cnc5ccccc54)cc3)c2c1 (configuration not stated) = 0.072
N=C(N)c1cccc(C(=O)N[C@@H](C(=O)NCCCc2ccccc2)c2ccccc2)c1 = 0.145
N=C(N)c1ccc(Oc2ccc(C(=O)N[C@H]3CC[C@H](N)CC3)c(Oc3ccc(C(=N)N)cc3)n2)cc1 = 0.6
N=C(N)c1cccc(-c2noc(C(F)(F)F)c2C(=O)Nc2ccc(-c3ccccc3S(N)(=O)=O)cc2)c1 = 0.0095

1: FC(F)(CNc1nccc2oc(Cc3cccc(Cl)c3)nc12)C1CCCCN1 (configuration not stated)
2: COc1ccc(-n2nc(C(F)(F)F)c3c(C)nn(-c4ccc(-c5ccccc5CN5CCCC5)cc4)c(=O)c32)cc1
3: Cc1cc(C(=O)Nc2ccc(-c3ccccc3S(N)(=O)=O)cn2)n(-c2cccc(C(=N)N)c2)n1
4: COc1ccc(-n2nc(C(F)(F)F)c3c2C(=O)N(c2ccc(C4(CN(C)S(C)(=O)=O)CC4)cc2)CC3)cc1
5: CN1CC(C)(COc2ccc(C(=N)N)cc2)Oc2ccc(N(CC(=O)O)Cc3cccc(F)c3)cc21 (configuration not stated)
Q. Please list the entries, largest Ki first. Please write the labels in the order that was asked for.
A. 5, 1, 2, 4, 3

----------
Ki values for Coagulation factor X (Homo sapiens, UniProt P00742) compiled from several publications are listed below.

N=C(N)c1ccc(Oc2ccc(C(=O)N3CCC(CCN)CC3)c(Oc3ccc(C(=N)N)cc3)n2)cc1 = 1.5 µM
NC[C@H]1CC[C@H](C(=O)N[C@@H](Cc2ccccc2)c2nc(-c3ccc(C(N)=O)cc3)c(Cl)[nH]2)CC1.O=C(O)C(F)(F)F = > 9 µM

Proceed to the following item.
Q. GET /values?readout=Ki&system=Coagulation factor X (Homo sapiens, UniProt P00742)&item= Cc1cc(OCCCN=C(N)N)cc(OS(=O)(=O)c2ccccc2Cl)c1
A. > 200 µM

----------
pKi: −log10 of the molar value.
Compiled from multiple publications: pKi readings for Coagulation factor X (Homo sapiens, UniProt P00742).
measure: pKi

1: C=Cc1cc(OC2CCOCC2)cc(C(Nc2ccc(C(=N)N)cc2)C(=O)O)c1 (configuration not stated)
2: CC(=N)N1CCC(Oc2ccc(N(C/C=C/c3cccc(C(=N)N)c3)C(=O)c3ccc(C(=O)O)c(C(=O)O)c3)cc2C(F)(F)F)CC1
Q. Which gives the smaller pKi number: 1 or 2 ? Give the chosen item's label as your response.
A. 1
(1: 4.88, 2: 9.25)

a: CC(C)(C)OC(=O)N[C@@H](C(=O)N1CCC[C@H]1C(=O)NCC1CCc2n[nH]cc2C1)C(c1ccccc1)c1ccccc1 (some centres not stated)
b: CCOC(=O)CN1CCCCC1CCNc1nccc2oc(Cc3cc(Cl)ccc3-n3cncn3)nc12 (configuration not stated)
c: Cc1nn(-c2cccc(CN)c2)c2cc(-c3ccc(N4CCCCC4=O)cc3)ccc12
d: N=C(N)c1cccc(C[C@H](NS(=O)(=O)c2ccc3ccccc3c2)C(=O)N2CCC[C@H]2C(=O)OCc2ccccc2)c1
Q. Order by pKi, ascending. Your reply should list the labels following the order given in the request.
A. a, d, c, b

1: CNS(=O)(=O)c1ccccc1-c1ccc(NC(=O)Cc2c[nH]c3ccc(C(=N)N)cc23)cc1
2: CNC(=O)CCCC1CCN(C(=O)[C@H](Cc2cccc(C(=N)N)c2)NS(=O)(=O)c2cccc(-c3ccc(Cl)c(Cl)c3)c2)CC1
Q. Between 1 and 2 , which one shows the smaller pKi number? Please indicate the selected item by its label.
A. 2
(2: 6.64, 1: 8.47)

1: COc1ccc(C(=O)NCC2CCN(c3ccnc(SC)n3)CC2)cc1OCCc1ccc(Cl)cc1Cl
2: CCc1nc2cc(OC3CCN(C(C)=N)CC3)ccc2n1Cc1ccc(-c2ccc(C(=N)N)cc2)cc1
Q. Short answer wanted: higher pKi, 1 or 2 ? Give the label under which the chosen entry appears.
A. 2

I: N=C(N)c1ccc(-n2ccc3ccc(NCc4ccc5ccc(C(=N)N)cc5c4)cc32)cc1
II: COC(=O)CCCN(c1ccc2nc(C)n(Cc3ccc4ccc(C(=N)N)cc4c3)c2c1)C1CCN(C(C)=N)CC1
III: CCCCOC(=O)[C@@H]1CN(Cc2ccc(-c3ccccc3S(N)(=O)=O)cc2)C[C@H]1c1cccc(C(=N)N)c1
IV: N=C(N)NCCCCNC(=O)[C@@H]1Cc2ccc(cc2)NC(=O)CCN2CCN(CCC(=O)Nc3ccc(cc3)C[C@@H](NS(=O)(=O)NC3CCCCC3)C(=O)N1)CC2
Q. Please list these in order of increasing pKi. Thank you! Kindly provide the labels arranged according to the requested ordering.
A. IV, II, I, III
(IV: 4.54, II: 6.52, I: 7.52, III: 7.92)

P: COc1ccc2ccc(S(=O)(=O)N(Cc3cccs3)[C@H]3CCN(Cc4cccc(C(=N)N)c4)C3=O)cc2c1
Q: N=C(N)c1ccc(Oc2ccc(NS(=O)(=O)c3ccc4ccccc4c3)c(Oc3ccc(C(=N)N)cc3)n2)cc1
Q. Would you kindly point out which of P and Q has the smaller pKi figure? Mark your selection by writing its label.
A. Q
(Q: 6.52, P: 7.47)

1: Nc1cc(C2=NOC(Cn3cncn3)(C(=O)Nc3ccc(-c4ccccc4S(N)(=O)=O)cn3)C2)ccc1Cl (racemic)
2: Cc1c(F)c(Oc2cccc(CC(=O)N(C)C)c2)nc(Oc2cccc(C(=N)N)c2)c1F
Q. Which of the two gives a bigger number for pKi: 1 or 2 ? Kindly state the label of the option you pick.
A. 1
(1: 7.47, 2: 6.34)
